- Test system: CUL4A^high MDA-MB-468 breast cancer cells
- assay-info: Cell killing in CUL4-high MDA-MB-468 cells (CellTiter Glo)
- Type: cell-based
- experimental-parameters: Homo sapiens, MDA-MB-468, 192 h; Table 3, 0 to 20 μM compound, 8 days treatment; read-out: EC50 OF cell killing, MDA-MB-468

[
  {
    "structure-smiles-string": "CN(c1ccc(-c2nc(C(=O)O)cc3c2[nH]c2cccc(F)c23)cc1)S(=O)(=O)c1ccccc1",
    "system-name": "CUL4A^high MDA-MB-468 breast cancer cells",
    "measurement-units": "nM",
    "EC50": 1180
  },
  {
    "structure-smiles-string": "CN(c1ccc(-c2nc(C(=O)O)cc3c2[nH]c2cc(F)ccc23)cc1)S(=O)(=O)c1ccccc1",
    "system-name": "CUL4A^high MDA-MB-468 breast cancer cells",
    "measurement-units": "nM",
    "EC50": 490
  }
]
